Recorded values, source PubChem BioAssay (NCI).

# Test system: KM12 colon
# method: NCI-60 one-dose screen, 48 h
# assay_context: 10 µM unless noted
Compounds without any hit were thinned out: in the full panel of roughly 83,000, 20% have a hit. Calls of active or inactive are those of the source. How the source made its calls: active means growth percent below 10; inactive means the rest.
Labels: Yes (active), No (inactive)

- compound: "COc1nc(=O)n(C2C=CC(=O)O2)cc1F (stereo unspecified)"
  class_label: "No"
- compound: "CC(Sc1ccccc1)C(=O)O (stereo unspecified)"
  class_label: "No"
- compound: "O=C(/C=C/c1cccs1)Nc1ncc(Cc2ccc(Cl)c(Cl)c2)s1"
  class_label: "No"
- compound: "O=C(/C=C/C12c3ccccc3C(c3ccccc31)C1C(=O)NC(=O)C12)c1ccncc1 (stereo unspecified)"
  class_label: "Yes"
- compound: "CCCCCCNC(=O)Oc1ccc(/C(=C(/CC)Cc2ccccc2)c2ccc(OCCCN(C)C)cc2)cc1"
  class_label: "No"
- compound: "COC(=O)c1[nH]nc(OC)c1C1(C(C#N)c2nc3ccccc3s2)CCCc2ccccc21 (stereo unspecified)"
  class_label: "No"
- compound: "NCCOCCOc1ccccc1"
  class_label: "No"
- compound: "O=c1ccc2nc(-c3ccccn3)nn(-c3ccccc3)c-2c1"
  class_label: "No"
- compound: "CC/C(=C(/c1ccc(Cl)cc1)c1ccc(OCCN2CCOCC2)cc1)c1ccccc1"
  class_label: "No"
- compound: "COc1cc(C=O)ccc1Oc1ccc([N+](=O)[O-])cc1[N+](=O)[O-]"
  class_label: "No"
- compound: "COc1cc(-c2nc3occn3c2-c2ccnc(NCCCNS(=O)(=O)c3ccc(O)cc3)n2)ccc1F"
  class_label: "No"
- compound: "COc1ccc(N2CCN(S(=O)(=O)c3oc(-c4ccccc4)nc3C#N)CC2)cc1"
  class_label: "No"
- compound: "CN(C)CCCn1c2nc(=O)[nH]c(=O)c-2nc2cc(Cl)c(Cl)cc21"
  class_label: "No"
- compound: "COC(=O)/C=C1/SC(=Nc2ccc([N+](=O)[O-])cc2)N(CCc2c[nH]c3ccccc23)C1=O"
  class_label: "No"
- compound: "C/C(=C(\\c1ccc(OCCN2CCOCC2)cc1)c1ccc(OC(=O)C2CCCCC2)cc1)c1ccc(Cl)cc1"
  class_label: "No"
- compound: "C#CCOCC1CN(C)C(=O)O1 (stereo unspecified)"
  class_label: "No"
- compound: "C=C[C@]1(C)C=C2CC[C@@H]3C(C)(C)C(=O)CC[C@@]3(C)[C@@H]2CC1"
  class_label: "No"
- compound: "CN(Cc1ccccc1)c1nc(Cl)c(C2CC(c3ccc(F)cc3)=NN2C=O)s1 (stereo unspecified)"
  class_label: "No"
- compound: "C#CCOc1cccc(Nc2ncc3ncn(C4CCN(C(=O)CCl)C4)c3n2)c1 (stereo unspecified)"
  class_label: "No"
- compound: "CCOC(=O)c1cnn(CC(O)CC)c1NC(=O)NCc1ccccc1C(F)(F)F (stereo unspecified)"
  class_label: "No"
- compound: "C/C=C(/C)C(=O)O[C@@H]1CC(C)(C)CC2C34OC(=O)[C@@]21CC[C@@]3(C)[C@]1(C)CCC2C(C)(C)C(=O)CC[C@]2(C)C1C[C@@H]4Cl (stereo partly specified)"
  class_label: "No"

###

Documented growth across a set of molecules
# Test system: NCI-H226 lung
# method: NCI-60 one-dose screen, 48 h (100 = growth as untreated, 0 = no growth, -100 = all killed)
# assay_context: 10 µM unless noted
About 83,000 compounds went through this panel and 20% of them were active in at least one assay; those are over-represented in the sample as a whole.

- molecule: "CCOC(=O)N(O)c1ccc(/C=C/c2ccccc2)cc1"
  growth [%]: -39.4
- molecule: "COc1cc(-c2nc3occn3c2-c2ccnc(NCCCNS(=O)(=O)c3ccc(O)cc3)n2)ccc1F"
  growth [%]: 96.8
- molecule: "CC1=C2[C@@H](CC1)[C@]1(C)O[C@@](C(C)C)(C[C@H]1OC(=O)CO)[C@H]2OC(=O)C1CC1c1ccccc1 (some centres undefined)"
  growth [%]: 78.2
- molecule: "Cc1nc2cccc(NCCCCC(=O)NO)c2c(=O)n1-c1ccccc1"
  growth [%]: 83.9
- molecule: "COc1ccc(Oc2nc(Nc3ccc(N4CCOCC4)cc3)ncc2NC(=O)c2cc(OC)cc(OC)c2)cc1"
  growth [%]: 71.2
- molecule: "COc1cc(/C=C2\\CCC/C(=C\\c3cc(CN4CCCC4)c(O)c(OC)c3)C2=O)cc(CN2CCCC2)c1O"
  growth [%]: 75.1
- molecule: "COc1cc2nc3cc([N+](=O)[O-])ccc3c(NCCNCC(C)(C)O)c2cc1OC"
  growth [%]: -4.58
- molecule: "C[C@@H]1CC[C@@H]2[C@@H]1[C@H](OC(=O)/C=C/c1ccccc1)[C@]1(c3ccccc3)C[C@@H](NC(=O)CO)[C@@]2(C)O1"
  growth [%]: 88.8
- molecule: "O=C1C(c2c[nH]c3ccccc23)=C(c2coc3cc(Br)ccc23)C(=O)N1O"
  growth [%]: 87.1
